Measured Residual turnover, listed per entry.
tested on: HPPD polypeptides; test: coupled HPPD activity assay: turnover and residual turnover in crude extracts; format: biochemical, Pseudomonas fluorescens; conditions: presence of 100 μM Cmpd. 1; high substrate concentration; changes in absorbance (OD) at 320 nm
In your answer, state the number alone without any accompanying words.

Below, each entry is followed by its recorded Residual turnover result.
molecule="15 (protein, mutant HPPD polypeptide) MADLYENPMGLMGFEFIEFASPTPGTLEPIFEIMGFTKVATHRSKNVHLYRQGEINLILNNEPNSIASYFAAEHGPSVCGMAFRVKDSQKAYNRALELGAQPIHIDTGPMELNLPAIKGIGGAPLYLIDRFGEGSSIYDIDFVYLEGVERNPVGAGLKVIDHLTHNVYRGRMVYWANFYEKLFNFREARYFDIKGEYTGLTSKAMSAPDGMIRIPLNEESSKGAGQIEEFLMQFNGEGIQHVAFLTDDLVKTWDALKKIGMRFMTAPRDNYYEMLEGRLPDHGEPVDQLQARGILLDGSSVEGDKRLLLQIFSETLMGPVFFEFIQRKGDDGFGPDSFKVLFESVERDQVRRGVLTAD" attribute_measured="Residual turnover" data_value=0.030
molecule="52 (protein, mutant HPPD polypeptide) MADLYENPMGLMGFEFIEFASPTPGTLEPIFEIMGFTKVATHRSKNVHLYRQGEINLILNNEPNSIASYFAAEHGPSVCGMAFRVKDSQKAYNRALELGAQPIHIDTGPMELNLPAIKGIGGAPLYLIDRFGEGSSIYDIDFVYLEGVERNPVGAGLKVIDHLTHNVYRGRMVYWANFYEKLFNFREARYFDIKGEYTGLTSKAMSAPDGMIRIPLNEESSKGAGQIEEFLMQFNGEGIQHVAFLTDDLVKTWDALKKIGMRFMTAPADNYYEMLEGRLPDHGEPVDQLQARGILLDGSSVEGDKRLLLQIFSETLMGPVFFEFIQRKGDDGFGPDSFKVLFEQIERDQVRRGVLTAD" attribute_measured="Residual turnover" data_value=0.088
molecule="46 (protein, mutant HPPD polypeptide) MADLYENPMGLMGFEFIEFASPTPGTLEPIFEIMGFTKVATHRSKNVHLYRQGEINLILNNEPNSIASYFAAEHGPSVCGMAFRVKDSQKAYNRALELGAQPIHIDTGPMELNLPAIKGIGGAPLYLIDRFGEGSSIYDIDFVYLEGVERNPVGAGLKVIDHLTHNVYRGRMVYWANFYEKLFNFREARYFDIKGEYTGLTSKAMSAPDGMIRIPLNEESSKGAGQIEEFLMQFNGEGIQHVAFLTDDLVKTWDALKKIGMRFMTAPGDNYYEMLEGRLPDHGEPVDQLQARGILLDGSSVEGDKRLLLQIFSETLMGPVFFEFIQRKGDDGFGPHSFKVLFEQVERDQVRRGVLTAD" attribute_measured="Residual turnover" data_value=0.098

Shift focus to the following entry.
Prompt: # input molecule: 61 (protein, mutant HPPD polypeptide) MADLYENPMGLMGFEFIEFASPTPGTLEPIFEIMGFTKVATHRSKNVHLYRQGEINLILNNEPNSIASYFAAEHGPSVCGMAFRVKDSQKAYNRALELGAQPIHIDTGPMELNLPAIKGIGGAPLYLIDRFGEGSSIYDIDFVYLEGVERNPVGAGLKVIDHLTHNVYRGRMVYWANFYEKLFNFREARYFDIKGEYTGLTSKAMSAPDGMIRIPLNEESSKGAGQIEEFLMQFNGEGIQHVAFLTDDLVKTWDALKKIGMRFMTAPADSYYEMLEGRLPDHGEPVDQLQARGILLDGSSVEGDKRLLLQIFSETLMGPVFFEFIQRKGDDGFGPHSFKVLFESIERDQVRRGVLTAD ; wanted: its Residual turnover
Completion: 0.091
